assay-summary: Cytotoxicity against MT2 cells
Format: cell-based
study-conditions: human
assay-metric: CC50
Put your answer as a value accompanied by its unit after it.

The cases that follow already have their CC50 on record.
COc1ccnc(Nc2ccc(Cl)c(Sc3ccccc3)c2)n1	21 µM
COc1ccnc(Nc2ccc(Cl)c(OCC=C(C)C)c2)n1	9 µM

In the following, a different compound is considered.
Fill in reported CC50 for this entry: COc1cc(OC)nc(Nc2ccc(C#N)c(OCC=C(C)C)c2)n1
0.81 µM

====

assay-summary: Cytotoxicity against MT2 cells
Assay type: cell-based
study-conditions: human
Here, each record is paired with measured CC50 data.

COc1ccnc(Nc2ccc(Cl)c(Oc3ccc(C)cc3)c2)n1	> 100 µM
COc1nc(C)nc(Nc2ccc(Cl)c(OCC=C(C)C)c2)n1	12 µM
COc1ccnc(Nc2ccc(Cl)c(Oc3ccccc3)c2)n1	38 µM
CNc1ccnc(Nc2ccc(Cl)c(OCC=C(C)C)c2)n1	0.69 µM
CC(C)=CCOc1cc(Nc2ncnc(Cl)n2)ccc1Cl	45 µM

In the following, a different molecule is considered.
Fill in reported CC50 for this entry: CCc1ccnc(Nc2ccc(Cl)c(OCC=C(C)C)c2)n1
0.33 µM

====

Here, each record is paired with measured CC50 data.
assay-summary: Cytotoxicity against MT2 cells
Type: cell-based
study-conditions: human
Just the number in nM, nothing appended.

Fill in reported CC50 for this entry: C/C=C/COc1cc(Nc2nccc(OC)n2)ccc1Cl
17000

Fill in reported CC50 for this entry: CNc1ncnc(Nc2ccc(Cl)c(OCC=C(C)C)c2)n1
3100

====

System: Human immunodeficiency virus 1
assay-summary: Antiviral activity against HIV1 3B in MT2 cells
Type: functional, organism-based
study-conditions: Human immunodeficiency virus 1, 3B
Here, each record is paired with measured EC50 data.
Just the number in µM, nothing appended.

COc1ccnc(Nc2ccc(Cl)c(Sc3ccccc3)c2)n1	0.32
CSc1ccnc(Nc2ccc(Cl)c(OCC=C(C)C)c2)n1	0.018
C/C=C/COc1cc(Nc2nccc(OC)n2)ccc1Cl	0.089
COc1ccnc(Nc2ccc(C#N)c(OCC=C(C)C)c2)n1	0.002
COc1nc(Nc2ccc(C#N)c(OCC=C(C)C)c2)nc(OC)n1	0.022
CNc1ccnc(Nc2ccc(Cl)c(OCC=C(C)C)c2)n1	0.006

Fill in reported EC50 for this entry: CC(C)=CCOc1cc(Nc2ncnc(N)n2)ccc1Cl
0.39

Fill in reported EC50 for this entry: CC(C)=CCOc1cc(Nc2ncccn2)ccc1C#N
0.017

Fill in reported EC50 for this entry: Clc1ccc(Nc2ncccn2)cc1Oc1ccccc1
13

Fill in reported EC50 for this entry: CNc1ncnc(Nc2ccc(Cl)c(OCC=C(C)C)c2)n1
0.031

Fill in reported EC50 for this entry: CNc1ccnc(Nc2ccc(C#N)c(OCC=C(C)C)c2)n1
0.005

Fill in reported EC50 for this entry: CC(C)=CCOc1cc(Nc2nccc(C)n2)ccc1Cl
0.039

====

Tested on: Human immunodeficiency virus 1
assay-summary: Antiviral activity against HIV1 3B in MT2 cells
Type: functional, organism-based
study-conditions: Human immunodeficiency virus 1, 3B
assay-metric: EC50 (nM)
Just the number in nM, nothing appended.

The cases that follow already have their EC50 on record.
CSc1ncnc(Nc2ccc(C#N)c(OCC=C(C)C)c2)n1	5
COc1ccnc(Nc2ccc(Cl)c(Oc3cccc(C)c3)c2)n1	540

Fill in reported EC50 for this entry: CCOc1ccnc(Nc2ccc(Cl)c(OCC=C(C)C)c2)n1
41

====

assay-summary: Cytotoxicity against MT2 cells
Type: cell-based
study-conditions: human
Here, each record is paired with measured CC50 data.
Just the number in µM, nothing appended.

The cases that follow already have their CC50 on record.
CC(C)=CCOc1cc(Nc2nccc(C)n2)ccc1Cl	0.15
CC(C)=CCOc1cc(Nc2ncnc(N)n2)ccc1Cl	48
COc1cc(N)nc(Nc2ccc(Cl)c(OCC=C(C)C)c2)n1	19
Clc1ccc(Nc2ncccn2)cc1Oc1ccccc1	30

In the following, a different compound is considered.
Fill in reported CC50 for this entry: CSc1ncnc(Nc2ccc(C#N)c(OCC=C(C)C)c2)n1
8.4

====

Test system: Human immunodeficiency virus 1
assay-summary: Antiviral activity against HIV1 3B in MT2 cells
Assay type: functional, organism-based
study-conditions: Human immunodeficiency virus 1, 3B
Here, each record is paired with measured EC50 data.
Just the number in nM, nothing appended.

The cases that follow already have their EC50 on record.
CC(C)=CCOc1cc(Nc2nccc(N)n2)ccc1Cl	75
CC(C)=CCOc1cc(Nc2ncccn2)ccc1Cl	200
COc1cc(N)nc(Nc2ccc(Cl)c(OCC=C(C)C)c2)n1	3000
COc1ccnc(Nc2ccc(Cl)c(OCC=C(C)C)c2)n1	10
CC(C)=CCOc1cc(Nc2ncnc(Cl)n2)ccc1C#N	310

Fill in reported EC50 for this entry: COc1nc(Nc2ccc(Cl)c(OCC=C(C)C)c2)nc(OC)n1
290

Fill in reported EC50 for this entry: COc1ccnc(Nc2ccc(Cl)c(Oc3ccc(C)cc3)c2)n1
10000

Fill in reported EC50 for this entry: CC(C)=CCOc1cc(Nc2nc(C)nc(Cl)n2)ccc1Cl
12000

Fill in reported EC50 for this entry: C/C=C/COc1cc(Nc2ncccn2)ccc1Cl
2300

Fill in reported EC50 for this entry: COc1ccnc(Nc2ccc(Cl)c(Oc3ccccc3)c2)n1
2500

Fill in reported EC50 for this entry: CCc1ccnc(Nc2ccc(Cl)c(OCC=C(C)C)c2)n1
16

Fill in reported EC50 for this entry: COc1ncnc(Nc2ccc(Cl)c(OCC=C(C)C)c2)n1
31

Fill in reported EC50 for this entry: COc1cc(OC)nc(Nc2ccc(C#N)c(OCC=C(C)C)c2)n1
160

Fill in reported EC50 for this entry: COc1nc(C)nc(Nc2ccc(Cl)c(OCC=C(C)C)c2)n1
100

====

Here, each record is paired with measured log10 CC50 data.
assay-summary: Cytotoxicity against MT2 cells
Type: cell-based
study-conditions: human
For clarity, the numbers are log10 values of CC50 expressed in µM.

Fill in reported log10 CC50 for this entry: C/C=C/COc1cc(Nc2ncccn2)ccc1Cl
1.49

Fill in reported log10 CC50 for this entry: COc1ccnc(Nc2ccc(Cl)c(Oc3cccc(C)c3)c2)n1
1.26

Fill in reported log10 CC50 for this entry: CCOc1ccnc(Nc2ccc(Cl)c(OCC=C(C)C)c2)n1
1.28

Fill in reported log10 CC50 for this entry: CNc1ccnc(Nc2ccc(C#N)c(OCC=C(C)C)c2)n1
-1.66

Fill in reported log10 CC50 for this entry: COc1nc(Nc2ccc(Cl)c(OCC=C(C)C)c2)nc(OC)n1
1.30

====

assay-summary: Cytotoxicity against MT2 cells
Type: cell-based
study-conditions: human
Here, each record is paired with measured log10 CC50 data.
For clarity, the numbers are log10 values of CC50 expressed in nM.

CC(C)=CCOc1cc(Nc2nc(C)nc(Cl)n2)ccc1Cl	4.60
CC(C)=CCOc1cc(Nc2ncnc(N)n2)ccc1C#N	2.30

Fill in reported log10 CC50 for this entry: COc1nc(N)nc(Nc2ccc(C#N)c(OCC=C(C)C)c2)n1
2.04

Fill in reported log10 CC50 for this entry: CC(C)=CCOc1cc(Nc2nccc(CO)n2)ccc1Cl
2.34

Fill in reported log10 CC50 for this entry: CC(C)=CCOc1cc(Nc2ncccn2)ccc1Cl
3.40

Fill in reported log10 CC50 for this entry: COc1ncnc(Nc2ccc(Cl)c(OCC=C(C)C)c2)n1
4.26

Fill in reported log10 CC50 for this entry: CSc1ccnc(Nc2ccc(Cl)c(OCC=C(C)C)c2)n1
3.45

Fill in reported log10 CC50 for this entry: CC(C)=CCOc1cc(Nc2nccc(N)n2)ccc1Cl
2.70

====

Here, each record is paired with measured pEC50 data.
Tested on: Human immunodeficiency virus 1
assay-summary: Antiviral activity against HIV1 3B in MT2 cells
Type: functional, organism-based
study-conditions: Human immunodeficiency virus 1, 3B
In textbook form, pEC50 equals minus log to base ten of the concentration in mol/L.

The cases that follow already have their pEC50 on record.
COc1cc(OC)nc(Nc2ccc(Cl)c(OCC=C(C)C)c2)n1	6.60
CC(C)=CCOc1cc(Nc2ncnc(N)n2)ccc1C#N	7.82

In the following, a different compound is considered.
Fill in reported pEC50 for this entry: COc1nc(N)nc(Nc2ccc(C#N)c(OCC=C(C)C)c2)n1
8.05
